# System: OVCAR-8
# methodSummary: NCI tumour cell line growth inhibition, 48 h
Active and inactive are the calls of the source. Cut-off read from the data, not from the text of the source: active = GI50 up to about 1.1 µM and inactive = higher.
// reported GI50 for each item listed

Completed entries (count: 5):
>  <compound>
CCCCCCCCCCCCCC(=O)CBr

>  <assayedTarget>
OVCAR-8

>  <result>
14 µM (inactive)

$$$$
>  <compound>
COC(=O)C(=O)C(C(=O)C(=O)Nc1ccccc1[N+](=O)[O-])c1nc2ccc([N+](=O)[O-])cc2nc1O (centres undefined)

>  <assayedTarget>
OVCAR-8

>  <result>
> 100 µM (inactive)

$$$$
>  <compound>
c1ccc2c(c1)nc1n2sc2nc3ccccc3n21

>  <assayedTarget>
OVCAR-8

>  <result>
> 100 µM (inactive)

$$$$
>  <compound>
Cc1ccc2c(c1)-c1nc(N)c(C#N)c(-c3ccc(Cl)cc3)c1CCS2(=O)=O

>  <assayedTarget>
OVCAR-8

>  <result>
32 µM (inactive)

$$$$
>  <compound>
Nc1nc(=O)c(/N=N/c2ccccc2)c(N)[nH]1

>  <assayedTarget>
OVCAR-8

>  <result>
43.5 µM (inactive)

$$$$

Answer with reported GI50 of CC1=CC(=O)c2ccc3c4ccccc4n(C)c3c2C1=O
58.9 µM (inactive)

Answer with reported GI50 of CCOC(=O)CN1C(=O)NC(C)(c2ccccc2)C1=O (centres undefined)
> 100 µM (inactive)

Answer with reported GI50 of CCn1c(=O)c2c3ccc(O)cc3oc2c2ccc(O)cc21
50.6 µM (inactive)

Answer with reported GI50 of COCO[C@@H]1C[C@H]2C(=O)N(COC)c3ccccc3C(=O)N2C1
> 100 µM (inactive)
